# assay.protocol: Biodistribution of 177Lu-labeled αMSH analogues in mice bearing B16F10 mouse melanoma
# Format: in vivo, C57BL/6J mice
# test.conditions: mouse, tumour/blood, iv, total radioactivity; 120 h p.i., C57BL/6J mice, B16F10 melanoma; read-out: Tumour/blood
outcome.measure: tissue to tissue ratio at 120 h
No unit in the answer, only the number.

As a guide, the following entries are already answered.
compound | meas.value
CCCC[C@H](NC(=O)CN1CCC(NC(=O)[C@H](CCCCNC(=O)CN2CCN(CC(=O)O)CCN(CC(=O)O)CCN(CC(=O)O)CC2)NC(=O)[C@H](CCC(=O)O)NC(=O)CCCc2ccc(I)cc2)CC1)C(=O)N[C@H]1CC(=O)NCCCC[C@@H](C(N)=O)N(C)C(=O)[C@H](Cc2c[nH]c3ccccc23)NC(=O)[C@H](CCCNC(=N)N)N(C)C(=O)[C@@H](Cc2ccccc2)NC(=O)[C@H](Cc2c[nH]cn2)NC1=O [^177Lu-labeled CCZ01118, metal not drawn] | 339
CCCC[C@H](NC(=O)CN1CCC(NC(=O)[C@H](CCCCNC(=O)CN2CCN(CC(=O)O)CCN(CC(=O)O)CCN(CC(=O)O)CC2)NC(=O)[C@H](CCC(=O)O)NC(=O)CCCc2ccc(I)cc2)CC1)C(=O)N[C@H]1CC(=O)NCCCC[C@@H](C(N)=O)N(C)C(=O)[C@H](Cc2c[nH]c3ccccc23)N(C)C(=O)[C@H](CCCNC(=N)N)N(C)C(=O)[C@@H](Cc2ccccc2)NC(=O)[C@H](Cc2c[nH]cn2)N(C)C1=O [^177Lu-labeled CCZ01088, metal not drawn] | 84.4
CCCC[C@H](NC(=O)CN1CCC(NC(=O)CN2CCN(CC(=O)O)CCN(CC(=O)O)CCN(CC(=O)O)CC2)CC1)C(=O)N[C@H]1CC(=O)NCCCC[C@@H](C(N)=O)N(C)C(=O)[C@H](Cc2c[nH]c3ccccc23)NC(=O)[C@H](CCCNC(=N)N)N(C)C(=O)[C@@H](Cc2ccccc2)NC(=O)[C@H](Cc2c[nH]cn2)NC1=O [^177Lu-labeled CCZ01106, metal not drawn] | 466
CCCC[C@H](NC(=O)CN1CCC(NC(=O)[C@H](CCCCNC(=O)CN2CCN(CC(=O)O)CCN(CC(=O)O)CCN(CC(=O)O)CC2)NC(=O)[C@H](CCC(=O)O)NC(=O)CCCc2ccc(I)cc2)CC1)C(=O)N[C@H]1CC(=O)NCCCC[C@@H](C(N)=O)NC(=O)[C@H](Cc2c[nH]c3ccccc23)NC(=O)[C@H](CCCNC(=N)N)NC(=O)[C@@H](Cc2ccccc2)NC(=O)[C@H](Cc2c[nH]cn2)NC1=O [^177Lu-labeled CCZ01082, metal not drawn] | 52.9

Switching to the query record.
Returns the measured tissue to tissue ratio at 120 h for the input compound. Input: CCCC[C@H](NC(=O)CN1CCC(NC(=O)CN2CCN(CC(=O)O)CCN(CC(=O)O)CCN(CC(=O)O)CC2)CC1)C(=O)N[C@H]1CC(=O)NCCCC[C@@H](C(N)=O)NC(=O)[C@H](Cc2c[nH]c3ccccc23)NC(=O)[C@H](CCCNC(=N)N)NC(=O)[C@@H](Cc2ccccc2)NC(=O)[C@H](Cc2c[nH]cn2)NC1=O [^177Lu-labeled CCZ01048, metal not drawn, reference compound]
233
